Each item that follows carries a reported Ki.
Target: porcine aminopeptidase N (pAPN) (Sus scrofa)
Construct: Microsomal leucine aminopeptidase (APN, EC 3.4.11.2) from porcine kidney was purchased from Sigma Aldrich
Sequence (P15145 whole entry): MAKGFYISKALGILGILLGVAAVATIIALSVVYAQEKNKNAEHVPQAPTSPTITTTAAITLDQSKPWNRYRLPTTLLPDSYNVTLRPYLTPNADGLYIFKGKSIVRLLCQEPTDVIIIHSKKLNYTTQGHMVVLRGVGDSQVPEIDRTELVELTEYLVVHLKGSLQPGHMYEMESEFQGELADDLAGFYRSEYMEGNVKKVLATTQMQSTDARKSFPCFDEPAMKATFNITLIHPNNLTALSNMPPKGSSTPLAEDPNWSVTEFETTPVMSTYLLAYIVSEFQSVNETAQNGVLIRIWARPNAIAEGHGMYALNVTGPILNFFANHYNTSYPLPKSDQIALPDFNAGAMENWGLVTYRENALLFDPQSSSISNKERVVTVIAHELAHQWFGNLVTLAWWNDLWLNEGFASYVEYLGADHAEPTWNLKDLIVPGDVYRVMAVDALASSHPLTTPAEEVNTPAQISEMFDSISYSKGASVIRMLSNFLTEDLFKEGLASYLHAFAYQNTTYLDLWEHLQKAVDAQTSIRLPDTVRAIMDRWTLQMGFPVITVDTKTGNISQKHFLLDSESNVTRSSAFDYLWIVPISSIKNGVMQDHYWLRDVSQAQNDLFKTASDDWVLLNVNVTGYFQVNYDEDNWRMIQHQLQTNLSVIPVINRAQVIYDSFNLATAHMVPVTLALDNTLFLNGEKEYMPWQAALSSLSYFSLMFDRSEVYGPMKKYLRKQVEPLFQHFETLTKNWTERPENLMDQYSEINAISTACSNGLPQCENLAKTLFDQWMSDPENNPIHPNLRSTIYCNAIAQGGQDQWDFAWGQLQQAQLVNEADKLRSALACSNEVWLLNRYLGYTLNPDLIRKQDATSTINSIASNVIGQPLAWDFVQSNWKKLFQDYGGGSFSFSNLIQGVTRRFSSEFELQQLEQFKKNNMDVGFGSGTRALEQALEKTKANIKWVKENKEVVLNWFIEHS
Assay: Inhibition of porcine kidney aminopeptidase N (L-Leu-pNa hydrolysis, absorbance at 405 nm)
Conditions: racemic compounds; apparent Ki ± SD; 50 mM potassium phosphate pH 7.2, 37 °C, substrate L-Leu-pNa; in = inactive at a concentration of 1 mM
Quick reminder: number only, in µM, skip the unit.

1. NC(c1ccc(C(F)(F)F)cc1)P(=O)(O)O (stereo not shown) [Compound 10]    56.3
2. NC(c1cccc(F)c1)P(=O)(O)O (stereo not shown) [Compound 2]    122
3. NC(c1ccccc1F)P(=O)(O)O (stereo not shown) [Compound 1]    232

Tell me the measured Ki of NC(c1cc(F)cc(C(F)(F)F)c1)P(=O)(O)O (stereo not shown) [Compound 11] , please.
164

---

Below, each of the compounds is paired with its reported Ki value.
Target: aminopeptidase from barley seeds
Assay: Inhibition of aminopeptidase from barley seeds (L-Leu-pNa hydrolysis, absorbance at 405 nm)
Conditions: racemic compounds; apparent Ki ± SD; 50 mM Tris-HCl pH 8.0, 37 °C, substrate L-Leu-pNa; in = inactive at a concentration of 1 mM; read-out: Barley Seed AP Ki + SD
Procedure: Aminopeptidase from barley seeds (Hordeum vulgare L.) was isolated and purified based on the procedure described previously. […] The activity of pAPN (KM = 0.52 mM) was determined as described in the literature. The activity of aminopeptidase from barley seeds was determined at 37 °C in 50 mM Tris-HCl, pH 8.0, containing 50 mM NaCl and 10 mM β-mercaptoethanol using substrate L-leucine-p-nitroanilidine (L-Leu-pNa) dissolved in DMSO. […]
Value expressed in µM; do not type the unit.

Ki lookup needed for NC(c1ccc(Cl)c(F)c1)P(=O)(O)O (stereo not drawn) [Compound 8] , thanks.
103

I would be grateful if you could share the reported Ki for NC(c1ccc(F)c(F)c1)P(=O)(O)O (stereo not drawn) [Compound 5] .
549

Reported Ki for NC(c1ccc(F)c(Cl)c1)P(=O)(O)O (stereo not drawn) [Compound 7] : what is it?
62.1

---

Biological target: aminopeptidase from barley seeds
Assay: Inhibition of aminopeptidase from barley seeds (L-Leu-pNa hydrolysis, absorbance at 405 nm)
Conditions: racemic compounds; apparent Ki ± SD; 50 mM Tris-HCl pH 8.0, 37 °C, substrate L-Leu-pNa; in = inactive at a concentration of 1 mM; read-out: Barley Seed AP Ki + SD
Procedure: Aminopeptidase from barley seeds (Hordeum vulgare L.) was isolated and purified based on the procedure described previously. […] The activity of pAPN (KM = 0.52 mM) was determined as described in the literature. The activity of aminopeptidase from barley seeds was determined at 37 °C in 50 mM Tris-HCl, pH 8.0, containing 50 mM NaCl and 10 mM β-mercaptoethanol using substrate L-leucine-p-nitroanilidine (L-Leu-pNa) dissolved in DMSO. […]
experimental-readout: pKi
In simple prose, pKi is minus the logarithm base ten of a concentration in moles per litre.

Example cases with answers are listed next.
1. NC(c1cccc(F)c1)P(=O)(O)O (stereo not drawn)    3.51
2. NC(c1cc(F)cc(C(F)(F)F)c1)P(=O)(O)O (stereo not drawn)    2.99

Please examine the following record next.
Which measured pKi value corresponds to NC(c1ccc(Cl)cc1F)P(=O)(O)O (stereo not drawn) ?
3.09
